system: Nanoluciferase (engineered Oplophorus gracilirostris luciferase); experiment: Primary Nanoluciferase (NLuc) qHTS assay for identification of artifact compounds. (AID 1845222); details: NLuc-conditioned medium, Nano-Glo luminescence, 5 min; series mostly up to 54.1 µM;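 also: NLuc secreted into diluted conditioned medium of S16 cells; 0% = DMSO and -100% = no enzyme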
Activity calls are given as the source filed them. Calls follow the shape of the dose curve; as a rule, active = well fitted inhibition curve with a large enough effect; inconclusive = small, poorly fitted or top-dose-only effect; inactive = flat fitted curve, though single readings scatter.
result.type: activity, negative = inhibition

The examples below pair each entry with its known result.
compound	target.entity	result.type	value.measured
CC(=O)OC[C@]12C[C@H](OC(=O)CC(C)C)C(C)=C[C@H]1O[C@@H]1[C@H](O)C[C@@]2(C)[C@]12CO2	Nanoluciferase (engineered Oplophorus gracilirostris luciferase)	activity, negative = inhibition	inactive
CO[C@@H]1C[C@H](O[C@H]2CC[C@@]3(C)C(CCC4C3CC[C@]3(C)[C@@H](C5=CC(=O)OC5)[C@@H](OC(C)=O)CC43O)C2)O[C@H](C)[C@@H]1O[C@H]1O[C@H](CO[C@@H]2O[C@H](CO)[C@@H](O)[C@H](O)[C@H]2O)[C@@H](O)[C@H](O)[C@H]1O (some centres not stated)	Nanoluciferase (engineered Oplophorus gracilirostris luciferase)	activity, negative = inhibition	1.29% [at 11.6 µM] (inactive)
C=C[C@H]1CN2CCC1C[C@H]2[C@H](O)c1ccnc2ccccc12 (some centres not stated)	Nanoluciferase (engineered Oplophorus gracilirostris luciferase)	activity, negative = inhibition	inactive
COC1CCCC(C)OC(=O)Cc2cc(O)cc(O)c2C(=O)C1 (configuration not stated)	Nanoluciferase (engineered Oplophorus gracilirostris luciferase)	activity, negative = inhibition	inactive

Input O=C(N1CCCCC1Cc1ccccc1)n1cc(-c2ccc(-c3ccccc3)cc2)nn1 (configuration not stated) . Output activity, negative = inhibition: inactive

Input C/C(=C\c1csc(C)n1)[C@@H]1C[C@@H]2O[C@@H]2CCC[C@H](C)[C@H](O)[C@@H](C)C(=O)C(C)(C)[C@@H](O)CC(=O)O1 . Output activity, negative = inhibition: inactive

Input O=C(N[C@H]1CN2CCC1CC2)c1cc2cccc(Cl)c2s1 . Output activity, negative = inhibition: inactive

###

assay: qHTS for Inhibitors of the Functional Ribonucleoprotein Complex (vRNP) of Lymphocytic Choriomeningitis Arenaviruses (LCMV): Viability assay - alamar blue signal for LCMV Primary Screen (AID 1347085); details: alamar blue viability counter-screen, LCMV vRNP screen cells; series mostly up to 57.5 µM; also: nearly all actives have a fitted effect of over 80% in size
Inconclusive results are not listed. Activity calls are given as the source filed them. Calls come from the whole dose curve; tested in HEK293 reporter line.
Returns: one label drawn from 1.0 (active), 0.0 (inactive)

Given O=c1c(O)c(-c2ccc(O[C@@H]3O[C@H](CO)[C@@H](O)[C@H](O)[C@H]3O)c(O)c2)oc2cc(O)cc(O)c12 , state the outcome it received in this test. 0.0

Given COc1ccc2c(c1)c(CC(=O)O)c(C)n2C(=O)c1ccccc1 , state the outcome it received in this test. 0.0

Given Cn1cc(-c2ccc3ncc(Cc4ccc5ncccc5c4)n3n2)cn1 , state the outcome it received in this test. 0.0

Given Cc1ccccc1O , state the outcome it received in this test. 0.0

Given CCCCCOC(=O)CCC , state the outcome it received in this test. 0.0

Given CS(=O)(=O)N1CCN(Cc2cc3nc(-c4cccc5[nH]ncc45)nc(N4CCOCC4)c3s2)CC1 , state the outcome it received in this test. 1.0

Given COC(=O)[C@H](c1ccccc1Cl)N1CCc2sccc2C1 , state the outcome it received in this test. 0.0

Given CCCCCCCCCCCCCCCC(=O)OC[C@@H](NC(=O)C(Cl)Cl)[C@H](O)c1ccc([N+](=O)[O-])cc1 , state the outcome it received in this test. 0.0

Given CN1[C@@H](CC(=O)c2ccccc2)CCC[C@H]1C[C@H](O)c1ccccc1 , state the outcome it received in this test. 0.0

Given C=C1[C@H](n2cnc3c(=O)[nH]c(N)nc32)C[C@H](O)[C@H]1CO , state the outcome it received in this test. 0.0

###

system: Es-2; assay: Primary qHTS to identify gynecologic anti-cancer compounds using libraries of approved drugs and bioactive compounds (AID 1345084); conditions: Gynecologic cancer cell panel viability, ATPlite luminescence, 48 h; series mostly up to 57.5 µM; also: nearly all actives have a fitted effect of over 55% in size
Inconclusive results are not listed. Activity calls are given as the source filed them. The call rests on the fitted dose curve; in most records, active means well fitted cell-killing curve with a large enough effect; inconclusive means small, poorly fitted or top-dose-only effect, or effect the other way; inactive means flat fitted curve, though single readings scatter.
Returns: one label drawn from active, inactive

Given CN[C@@H]1C[C@H]2O[C@@](C)([C@@H]1OC)n1c3ccccc3c3c4c(c5c6ccccc6n2c5c31)C(=O)NC4 , state the outcome it received in this test. active

Given CC(=O)O[C@H]1CN2CCC1CC2 , state the outcome it received in this test. inactive

Given CC[C@@H]1C[C@H]2CC[C@H](O2)[C@H](C)C(=O)O[C@@H](C)C[C@@H]2CC[C@@H](O2)[C@@H](C)C(=O)O[C@H](C)C[C@H]2CC[C@H](O2)[C@H](C)C(=O)O[C@@H](C)C[C@@H]2CC[C@@H](O2)[C@@H](C)C(=O)O1 , state the outcome it received in this test. active

Given CC1=CC2/C=C(\C)CCC(O)C(O)/C=C/C(=O)C23C(=O)NC(CC(C)C)C3C1C (centres undefined) , state the outcome it received in this test. active

###

experiment: P-glycoprotein substrates identified in KB-8-5-11 adenocarcinoma cell line, qHTS therapeutic library screen (AID 1346987); conditions: KB-8-5-11 (P-gp overexpressing) viability, CellTiter-Glo, 72 h; series mostly up to 44.5 µM; also: nearly all actives have a fitted effect of over 65% in size
Inconclusive results are not listed. Active and inactive are the calls of the source. Calls follow the shape of the dose curve; as a rule, active = well fitted inhibition curve with a large enough effect; inconclusive = small, poorly fitted or top-dose-only effect; inactive = flat fitted curve, though single readings scatter.
Returns: one label drawn from active, inactive

Given C[C@@H]1[C@H](O)[C@@H](C)/C=C/C=C/CC/C=C/C=C/C=C/C=C/[C@H](O[C@H]2O[C@@H](C)[C@H](O)[C@@H](N)[C@H]2O)C[C@@H]2O[C@](O)(C[C@@H](O)[C@H](O)CC[C@@H](O)C[C@@H](O)C[C@@H](O)CC(=O)O[C@H]1C)C[C@H](O)[C@H]2C(=O)O , state the outcome it received in this test. inactive

Given C[C@]12CC[C@H](O[C@@H]3O[C@H](CO)[C@@H](O)[C@H](O)[C@H]3O)CC1=CC[C@@H]1C2CC[C@]2(C)[C@@H](C3=CC(=O)OC3)CC[C@]12O (stereo partly drawn) , state the outcome it received in this test. active

Given CN1CCN(c2nc3ccccc3nc2Cl)CC1 , state the outcome it received in this test. inactive

Given COc1ccc(CN(C(=O)[C@@H](N)Cc2c(C)cc(C(N)=O)cc2C)[C@@H](C)c2ncc(-c3ccccc3)[nH]2)cc1C(=O)O , state the outcome it received in this test. inactive

Given C[C@]12CC[C@H](O)C[C@@H]1CC[C@@H]1[C@@H]2CC[C@]2(C)[C@@H](C3=CC(=O)OC3)CC[C@]12O , state the outcome it received in this test. active

Given C=C1[C@@H](O)[C@]2(O)OC[C@]34C2[C@]2(C)C(C[C@H]3OC(=O)[C@H](O)[C@@]14O)C(C)=CC(=O)[C@H]2O (stereo partly drawn) , state the outcome it received in this test. inactive

Given Clc1ccc([C@@H]2C[C@H]3CC[C@@H]2N3)cn1 , state the outcome it received in this test. inactive

Given C=C(CO)[C@@]12O[C@@H]1[C@@]1(C)C(=CC2=O)CC[C@@H](O)[C@@H]1C , state the outcome it received in this test. active

Given COC1CC(O[C@H]2CC[C@]3(C)C4CC[C@]5(C)[C@@H](C6=CC(=O)OC6)[C@@H](OC(C)=O)C[C@]5(O)C4CC[C@@H]3C2)OC(C)C1O[C@@H]1O[C@H](CO)[C@@H](O)[C@H](O)[C@H]1O (stereo partly drawn) , state the outcome it received in this test. active

Given CO[C@@H]1C[C@H](O[C@H]2CC[C@@]3(C)C(CCC4C3CC[C@]3(C)[C@@H](C5=CC(=O)OC5)[C@@H](OC(C)=O)CC43O)C2)O[C@H](C)[C@@H]1O[C@H]1O[C@H](CO[C@@H]2O[C@H](CO)[C@@H](O)[C@H](O)[C@H]2O)[C@@H](O)[C@H](O)[C@H]1O (stereo partly drawn) , state the outcome it received in this test. active

Given COC1C=CC23c4cc5c(cc4COC2(O)CN(C)C3C1)OCO5 (stereo not drawn) , state the outcome it received in this test. inactive

Given CC(C)=CCC[C@]1(C)C=Cc2c(O)c3c(c(CC=C(C)C)c2O1)O[C@]12C(=C[C@@H]4CC1C(C)(C)O[C@@]2(C/C=C(/C)C(=O)O)C4=O)C3=O , state the outcome it received in this test. active

Given CCc1cc(OC)c(C[C@@H](C)N)cc1OC , state the outcome it received in this test. inactive

Given CCC(=O)O[C@H]1[C@@H](N2CCCCC2)C[C@H]2[C@@H]3CC[C@H]4C[C@H](OC(C)=O)[C@@H](N5CCCCC5)C[C@]4(C)[C@H]3CC[C@@]21C , state the outcome it received in this test. inactive

Given C[C@@H]1C[C@@H](O)[C@]2(O)O[C@@H]3C[C@@]4(C=O)C(CC[C@@H]5C4CC[C@]4(C)[C@@H](C6=CC(=O)OC6)CC[C@]54O)C[C@H]3O[C@@H]2O1 (stereo partly drawn) , state the outcome it received in this test. active

Given CN1CCc2cc3c(cc2C1C1OC(=O)c2c1ccc1c2OCO1)OCO3 (stereo not drawn) , state the outcome it received in this test. inactive

Given CC(=O)N1N=C(c2ccc(N)cc2)c2cc3c(cc2C[C@H]1C)OCO3 , state the outcome it received in this test. inactive

Given CNc1ccc2oc(C[C@H]3O[C@@]4(CC[C@H]3C)O[C@H](C(C)C(=O)c3ccc[nH]3)[C@H](C)C[C@H]4C)nc2c1C(=O)O (stereo partly drawn) , state the outcome it received in this test. active

Given CC1(C)C(=O)N(c2ccc(C#N)c(C(F)(F)F)c2)C(=O)N1CCCCO , state the outcome it received in this test. inactive

Given C#CC1(O)CCC2C3CCC4=CC(=O)CCC4=C3C=CC21C (stereo not drawn) , state the outcome it received in this test. active

Given CC(C)(O)/C=C/C(=O)[C@](C)(O)[C@H]1[C@H](O)C[C@@]2(C)[C@@H]3CC=C4[C@@H](C[C@H](O)C(=O)C4(C)C)[C@]3(C)C(=O)C[C@]12C , state the outcome it received in this test. active

Given CC1=CC2/C=C(\C)CCC(O)C(O)/C=C/C(=O)OC23C(=O)NC(CC(C)C)C3C1C (stereo not drawn) , state the outcome it received in this test. inactive

Given CO/C1=C\C(C)=C\[C@@H](C)[C@@H](O)[C@@H](C)C/C(C)=C/C=C/[C@H](OC)[C@@H]([C@@H](C)[C@@H](O)[C@H](C)[C@@]2(O)C[C@@H](O)[C@H](C)[C@@H](C(C)C)O2)OC1=O , state the outcome it received in this test. active

Given Cc1cccc(NC(=O)c2ccc(C(F)(F)F)cc2C(=O)O)n1 , state the outcome it received in this test. inactive

Given Fc1cc(F)c2c(c1)C1C=CCC1C(c1cccnc1)N2 (stereo not drawn) , state the outcome it received in this test. active

Given COC1CC(O[C@H]2CC[C@@]3(C)C(CCC4C3CC[C@]3(C)C(C5=CC(=O)OC5)CCC43O)C2)OC(C)C1OC1OC(COC2OC(CO)C(O)C(O)C2O)C(O)C(O)C1O (stereo partly drawn) , state the outcome it received in this test. active

Given COc1ccc(C23CCC(=O)C=C2N(C)CC3)cc1OC (stereo not drawn) , state the outcome it received in this test. inactive

Given CC(=O)OC[C@]12C[C@H](O)C(C)=C[C@H]1O[C@@H]1[C@H](O)[C@@H](O)[C@@]2(C)[C@]12CO2 , state the outcome it received in this test. active
